- TARGET ENTITY: UniProt P29597
- Sequence (P29597 whole entry): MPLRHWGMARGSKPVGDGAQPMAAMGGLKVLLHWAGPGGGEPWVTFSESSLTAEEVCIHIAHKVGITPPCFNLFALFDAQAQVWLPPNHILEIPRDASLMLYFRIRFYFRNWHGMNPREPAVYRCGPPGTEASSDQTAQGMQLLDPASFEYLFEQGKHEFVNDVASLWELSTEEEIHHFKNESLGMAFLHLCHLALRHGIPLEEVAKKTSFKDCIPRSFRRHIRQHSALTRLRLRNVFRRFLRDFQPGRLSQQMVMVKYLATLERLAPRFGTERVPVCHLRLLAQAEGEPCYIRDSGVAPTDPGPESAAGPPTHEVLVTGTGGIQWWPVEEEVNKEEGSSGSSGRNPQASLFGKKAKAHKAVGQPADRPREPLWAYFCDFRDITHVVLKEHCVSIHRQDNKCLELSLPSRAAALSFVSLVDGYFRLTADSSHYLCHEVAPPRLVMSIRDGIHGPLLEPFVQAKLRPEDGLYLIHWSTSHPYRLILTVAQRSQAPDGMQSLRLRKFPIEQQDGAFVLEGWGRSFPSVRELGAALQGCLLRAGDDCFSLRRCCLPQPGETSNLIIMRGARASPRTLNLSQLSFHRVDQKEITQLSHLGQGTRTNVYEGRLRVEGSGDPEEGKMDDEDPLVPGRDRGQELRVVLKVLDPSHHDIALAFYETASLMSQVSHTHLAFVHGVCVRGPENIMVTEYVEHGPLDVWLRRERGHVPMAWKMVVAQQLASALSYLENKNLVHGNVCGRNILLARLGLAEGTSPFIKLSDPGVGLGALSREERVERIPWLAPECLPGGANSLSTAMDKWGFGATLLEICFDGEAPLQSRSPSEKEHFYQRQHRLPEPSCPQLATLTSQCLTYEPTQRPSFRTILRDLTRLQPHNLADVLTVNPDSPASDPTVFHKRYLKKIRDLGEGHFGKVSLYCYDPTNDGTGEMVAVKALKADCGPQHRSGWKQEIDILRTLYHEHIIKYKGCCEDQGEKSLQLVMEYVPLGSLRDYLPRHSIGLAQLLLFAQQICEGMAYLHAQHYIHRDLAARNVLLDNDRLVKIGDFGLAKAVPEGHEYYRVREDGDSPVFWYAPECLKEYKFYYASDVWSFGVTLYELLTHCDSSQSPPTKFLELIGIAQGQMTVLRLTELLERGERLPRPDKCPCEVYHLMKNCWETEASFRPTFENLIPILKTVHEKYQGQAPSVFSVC
- ASSAY NOTES: TYK2 degradation MSD assay in OCI-LY10 cells
- Type: cell-based
- Design: endogenous in cells; host or cells: EBV-B cells
- TEST SETTINGS: 4 to 24 hours incubation, read-out: TYK2 MSD DC50 rating in OCI-LY10
Each item that follows carries a reported DC50.

Study these solved cases before continuing.
Task: Recorded DC50 of CNc1cc(Nc2cccn(-c3ccc(C(=O)N4CCC5(CCN(c6ncc(C#Cc7ccc8c(c7)n(C)c(=O)n8C7CCC(=O)NC7=O)cn6)C5=O)C4)cn3)c2=O)nn2c(C(=O)N[C@@H]3C[C@@H]3F)cnc12 (some centres unmarked) , please.
Output: < 1 nM

Task: Recorded DC50 of CNc1cc(Nc2cccn(-c3ccc(C(=O)N4CCN(CCc5ccc6c(c5)n(C)c(=O)n6C5CCC(=O)NC5=O)CC4)cn3)c2=O)nn2c(C(=O)N[C@@H]3C[C@@H]3F)cnc12 (some centres unmarked) , please.
Output: > 100 nM

Task: Recorded DC50 of CNc1cc(-c2ccc(-c3ccc(CN4CCC(N5CC(N6CCN(c7ccc8c(c7)n(C)c(=O)n8C7CCC(=O)NC7=O)CC6)C5)CC4)cn3)cc2)nn2c(C(=O)N[C@@H]3C[C@@H]3F)cnc12 (some centres unmarked) , please.
Output: < 1 nM

Task: Recorded DC50 of CNC(=O)c1cnc(Nc2ccc(CN3CCC(OC4CC(c5cccc6c5n(C)c(=O)n6C5CCC(=O)NC5=O)C4)CC3)cn2)cc1Nc1cccc(-c2ncc(F)cn2)c1OC (centres unmarked) , please.
Output: < 1 nM

Task: Recorded DC50 of CNC(=O)c1cnc(Nc2ccc(CN3CC(N(C)c4ccc5c(c4)n(C)c(=O)n5C4CCC(=O)NC4=O)C3)cn2)cc1Nc1cccc(-c2ncc(F)cn2)c1OC (centres unmarked) , please.
Output: > 100 nM

Task: Recorded DC50 of CNc1cc(Nc2cccn(-c3cccc(C(=O)NCCCCc4ccc5c(c4)n(C)c(=O)n5C4CCC(=O)NC4=O)c3)c2=O)nn2c(C(=O)N[C@@H]3C[C@@H]3F)cnc12 (some centres unmarked) [Example K227] , please.
Output: > 100 nM

Task: Recorded DC50 of CNc1cc(Nc2cccc(CN3CCC(N(C)CC4CCN(c5ccc(-c6ccc7c(c6)n(C)c(=O)n7C6CCC(=O)NC6=O)cc5)C4)CC3)c2)nn2c(C(=O)NC3CC3)cnc12 (centres unmarked) , please.
Output: < 1 nM

Let us move to another entry and its DC50.
Task: Recorded DC50 of CNc1cc(Nc2cccc(N3CCC(CN4CCN(c5ccc(-c6ccc7c(c6)n(C)c(=O)n7C6CCC(=O)NC6=O)cc5)CC4)CC3)c2OC)nn2c(C(=O)N[C@@H]3C[C@@H]3F)cnc12 (some centres unmarked) , please.
Output: 1 to 10 nM
